target: Runt-related transcription factor 1 (Homo sapiens) + Core-binding factor subunit beta (Homo sapiens) (UniProt Q01196+Q13951); test: qHTS Assay for Compounds Blocking the Interaction Between CBF-beta and RUNX1 for the Treatment of Acute Myeloid Leukemia: Hit Validation; conditions: AlphaScreen CBFb-His/RUNX1-biotin binding; series mostly up to 59.8 µM; note: nearly all actives have a fitted effect of over 60% in size; note: potency is the fitted concentration of half-maximal effect
Sequence (Q01196 whole entry, looked up): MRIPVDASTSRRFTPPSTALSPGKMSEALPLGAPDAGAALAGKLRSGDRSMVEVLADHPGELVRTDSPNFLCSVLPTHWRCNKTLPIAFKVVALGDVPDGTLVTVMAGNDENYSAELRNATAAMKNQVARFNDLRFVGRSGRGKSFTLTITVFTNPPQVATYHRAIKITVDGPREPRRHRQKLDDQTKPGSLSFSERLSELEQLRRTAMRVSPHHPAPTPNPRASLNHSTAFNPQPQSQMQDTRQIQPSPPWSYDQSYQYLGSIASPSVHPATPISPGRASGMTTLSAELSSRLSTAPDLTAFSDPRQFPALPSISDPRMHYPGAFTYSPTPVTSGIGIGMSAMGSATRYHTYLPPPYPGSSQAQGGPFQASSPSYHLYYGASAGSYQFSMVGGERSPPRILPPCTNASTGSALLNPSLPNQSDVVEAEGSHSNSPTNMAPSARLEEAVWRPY
Sequence (Q13951 whole entry, looked up): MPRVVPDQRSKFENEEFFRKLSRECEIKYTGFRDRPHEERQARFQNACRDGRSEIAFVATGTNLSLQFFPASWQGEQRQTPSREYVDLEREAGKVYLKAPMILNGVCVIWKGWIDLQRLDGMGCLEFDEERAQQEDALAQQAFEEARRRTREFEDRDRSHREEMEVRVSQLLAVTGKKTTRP
The whole screen tested about 1,500 compounds, of which about 100 (6.7%) were called active. About 7% were inconclusive and are not listed. The sample as a whole holds a higher share of actives than the screen did.
Experimental Endpoint: Potency

CCCC(=O)NC(c1cccs1)c1cc([N+](=O)[O-])c2cccnc2c1O (centres undefined); 3.98 µM (active)
CC(C)CC(=O)NC(=S)Nc1ccccc1N1CCCC1; inactive
O=C(N/N=C/c1ccccc1[N+](=O)[O-])c1cnccn1; inactive
COc1cc(C2C(C#N)=C(N)OC3=C2C(=O)CC(C)(C)C3)ccc1OCCN1CCOCC1 (centres undefined); inactive
N#Cc1ccc(S(=O)(=O)N2CCCN(c3ccc(C(F)(F)F)cn3)CC2)cc1; inactive

Query :: Sample CSc1ccc(NC(=O)Nc2cc(C)ccn2)cc1 — what was its Potency?
Result :: inactive
